ASSAY_PROTOCOL: Toxicity liver stage against HepG2, at 10uM
Format: cell-based
Design: test concentration 10 uM, cell line HepG2-A16-CD81EGFP
CONDITION_DESCRIPTION: human, HepG2-A16-CD81EGFP cells; read-out: INHIBITION
METRIC_NAME: cytotoxicity at 10 µM (%)
Numbers only; they are read as %.

Record excerpt, results attached:
Cc1cnc(CN(C)C2CCN(CCc3ccccn3)CC2)cn1 | -12.1
Cc1ccc(-c2cc(C(=O)N(C)Cc3noc4c3CCCC4)[nH]n2)s1 | -1.03

Which cytotoxicity at 10 µM value belongs to `c1cc(NCc2cscn2)cc(OCCN2CCCCC2)c1` ?
-20.7

What about this compound? `CCC(=O)N1CCC(c2nc(C)c3c(n2)N(C)CCC3)CC1`
4.26

What about this compound? `O=C(NCCc1nnc[nH]1)Nc1cccc(SC(F)F)c1`
-42.4

* * *

Entries and their measured cytotoxicity at 10 µM follow.
ASSAY_PROTOCOL: Toxicity liver stage against HepG2, at 10uM
Assay type: cell-based
Parameters: test concentration 10 uM, cell line HepG2-A16-CD81EGFP
CONDITION_DESCRIPTION: human, HepG2-A16-CD81EGFP cells; read-out: INHIBITION
Your reply should be a number followed by the unit it is expressed in.

Record excerpt, results attached:
CN1CCCN(c2nc(C3CCCC3)nc3c2cnn3C)CC1 | -3.9%
CC(CN1CCCCCC1)NCc1cc(-c2ccco2)on1 (stereo unspecified) | 1.56%
COc1ccnc(CN2CCC=C(C(C)NC(C)=O)C2)c1OC (stereo unspecified) | -8.81%

Which cytotoxicity at 10 µM value belongs to `CCSc1ccc(C(=O)N2CC[C@](C)(O)[C@H](C)C2)s1` ?
-12.2%

What about this compound? N#Cc1ccccc1CN1CCCC(c2nccn2CC2CC2)C1 (stereo unspecified)
2.84%

What about this compound? `CCn1cnnc1CNC(=O)N1CCN(c2nc(C)c(C)s2)CC1`
-9.62%

* * *

ASSAY_PROTOCOL: Toxicity liver stage against HepG2, at 10uM
Format: cell-based
Design: test concentration 10 uM, cell line HepG2-A16-CD81EGFP
CONDITION_DESCRIPTION: human, HepG2-A16-CD81EGFP cells; read-out: INHIBITION
METRIC_NAME: cytotoxicity at 10 µM (%)
Numbers only; they are read as %.

Record excerpt, results attached:
CC(C)(NCC(=O)NCCC#N)c1ccc2c(c1)OCCO2 | -4.03
Cc1noc(C)c1C(=O)N1CCC(n2cccn2)CC1 | 3.82

API: the following record is the query input.
Which cytotoxicity at 10 µM value belongs to `CNc1cc(C)nc(N2C[C@@H](C(=O)O)[C@H](C3CC3)C2)n1` ?
-0.147

* * *

ASSAY_PROTOCOL: Toxicity liver stage against HepG2, at 10uM
Format: cell-based
Parameters: test concentration 10 uM, cell line HepG2-A16-CD81EGFP
CONDITION_DESCRIPTION: human, HepG2-A16-CD81EGFP cells; read-out: INHIBITION
Entries and their measured cytotoxicity at 10 µM follow.
Numbers only; they are read as %.

FC(F)(F)CCc1ccnc(N2CCN(Cc3ccccn3)CC2)n1 | -27

Which cytotoxicity at 10 µM value belongs to `c1ccc(CCCN2CCN(c3ccc4nncn4n3)CC2)cc1` ?
4.2

What about this compound? `CS(=O)(=O)NC[C@]12COC[C@H]1CN(C(=O)C1CC(F)(F)C1)C2`
-95.5

What about this compound? `N#Cc1cccc(C(=O)N2CC(c3nc(-c4ccc[nH]c4=O)no3)C2)c1`
-4.13

What about this compound? `CSc1ccccc1C(=O)N1C[C@@H]2CC[C@H]1CN(C(=O)N(C)C)C2`
-3.99

What about this compound? `Cc1cc(C)cc(-c2cccc(CC3(C(=O)O)CCOCC3)c2)c1`
-4.04

What about this compound? `Cc1nnc2n1CCN(Cc1csc(COc3ccccc3)n1)C2`
-14.3

What about this compound? `O=C(COc1ccc2cccnc2c1)N1CCN[C@H]2CS(=O)(=O)C[C@H]21`
7.98

What about this compound? O=C1CC(c2cccnc2)c2c(c(C(=O)O)cn2-c2ccccc2)N1 (stereo unspecified)
9.92

What about this compound? CC(c1nc(C2CC2)no1)N1CCN(CCN2CCCC2=O)CC1 (stereo unspecified)
-10.9

What about this compound? `CC(=O)N[C@H]1CCN(c2nc(C)nc3c2c(C)nn3C)C1`
4.61

Taken from ChEMBL document CHEMBL4513216.
